# credit: the supplement of paper PMC10567573

B1: ANKRD17 (parent)
chain: EMVRFLLEAGADQEHKTDEMHTAL

Variants of: B1
Experiment: protein stability index of a GFP-peptide fusion (GPS, HEK-293T) (PSI 1-6); higher = more stable;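 note: lentivirally expressed fusions sorted by FACS into six bins by GFP to DsRed ratio, PSI derived from sequencing read proportions per bin multiplied by bin number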
Settings: c terminus: a fixed tail appended
recorded-metric: protein stability index
Give your answer as a number; write no unit.

A9P
3.08
E19N
3.27
H15C
3.16
A11E
2.68

Can you share its protein stability index? I mean this variant: "E19D" 2.28

# protein stability index lookup, item "M2G" 4.74

What value of protein stability index has been reported for the following variant? "L24M" 2.37

What does the record list as protein stability index for "E8P" ? 3.11

Please look up its protein stability index: "G10F" 2.18

Report protein stability index for "E19P" please. 1.87

Recorded protein stability index for "V3H" , please? 4.55
